FYI, the data here is from ChEMBL document CHEMBL1124545.

- Study system: Muscarinic receptor M2 and M3 (Rattus norvegicus) (UniProt P08483+P10980)
- Sequence (P08483 whole entry, looked up): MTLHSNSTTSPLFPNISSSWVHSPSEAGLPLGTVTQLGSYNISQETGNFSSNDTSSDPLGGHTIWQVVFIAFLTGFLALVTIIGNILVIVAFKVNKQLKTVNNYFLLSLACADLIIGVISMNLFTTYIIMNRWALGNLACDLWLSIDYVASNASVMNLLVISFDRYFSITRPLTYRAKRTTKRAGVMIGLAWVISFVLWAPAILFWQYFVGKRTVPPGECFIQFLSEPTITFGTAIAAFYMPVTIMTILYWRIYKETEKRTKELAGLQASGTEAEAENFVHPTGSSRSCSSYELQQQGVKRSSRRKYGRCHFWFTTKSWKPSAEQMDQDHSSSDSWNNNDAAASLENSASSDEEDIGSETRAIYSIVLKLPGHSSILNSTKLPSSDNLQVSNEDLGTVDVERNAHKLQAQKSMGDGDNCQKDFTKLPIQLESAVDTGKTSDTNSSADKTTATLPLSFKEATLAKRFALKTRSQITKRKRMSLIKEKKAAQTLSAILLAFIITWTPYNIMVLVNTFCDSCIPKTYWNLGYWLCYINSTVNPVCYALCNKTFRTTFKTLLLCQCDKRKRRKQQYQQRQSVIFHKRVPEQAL
- Sequence (P10980 whole entry, looked up): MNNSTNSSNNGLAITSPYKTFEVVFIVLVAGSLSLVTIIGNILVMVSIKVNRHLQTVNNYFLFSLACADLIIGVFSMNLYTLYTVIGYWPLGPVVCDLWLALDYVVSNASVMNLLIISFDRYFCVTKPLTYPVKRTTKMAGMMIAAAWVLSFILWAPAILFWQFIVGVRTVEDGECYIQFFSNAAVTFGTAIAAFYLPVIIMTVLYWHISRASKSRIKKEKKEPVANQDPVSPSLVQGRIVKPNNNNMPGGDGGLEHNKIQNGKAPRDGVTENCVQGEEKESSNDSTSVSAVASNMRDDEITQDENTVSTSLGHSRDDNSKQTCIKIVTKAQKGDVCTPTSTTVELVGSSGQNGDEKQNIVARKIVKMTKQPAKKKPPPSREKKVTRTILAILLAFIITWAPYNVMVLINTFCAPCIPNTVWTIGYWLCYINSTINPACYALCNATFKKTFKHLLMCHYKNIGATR
- Assay explanation: Selectivity ratio for glandular muscarinic receptor 3 and cardiac muscarinic receptor 2 in rat
The following compounds are shown together with reported Ratio values.
Experimental readout: Ratio

Compound | Value operator | Numeric value
O=C1Nc2cccnc2N(C(=O)CN2CCCCC2CN2CCCC2)c2ccccc21 (stereo not given) | = | 2.7
CCN(CC)CC1CCCCN1CC(=O)N1c2cc(Cl)ccc2C(=O)Nc2cccnc21 (stereo not given) | = | 37.5
CN(CC1CCCCN1CC(=O)N1c2ccccc2C(=O)Nc2cccnc21)C1CCCCC1 (stereo not given) | = | 2.5
CCN(CC)CC1CCCCCN1CC(=O)N1c2ccccc2C(=O)Nc2cccnc21 (stereo not given) | = | 7.5
CCN(CC)CC1CCCN(CC(=O)N2c3ccccc3C(=O)Nc3cccnc32)C1 (stereo not given) | = | 1.8
CCN(CC)CCC1CCCCN1CC(=O)N1c2ccccc2C(=O)Nc2cccnc21 (stereo not given) | = | 3
CCN(CC)CC1CCCCN1CC(=O)N1c2cc(C)ccc2C(=O)Nc2cccnc21 (stereo not given) | = | 28.5
O=C1Nc2cccnc2N(C(=O)CN2CCCCC2CN2CCOCC2)c2ccccc21 (stereo not given) | < | 4
CCN(CC)CC1CCCN1CC(=O)N1c2ccccc2C(=O)Nc2cccnc21 (stereo not given) | = | 13
CCN(CC)CC1CCCCN1CCC(=O)N1c2ccccc2C(=O)Nc2cccnc21 (stereo not given) | = | 2.7

* * *

The following compounds are shown together with reported log10(IC50) values.
- Study system: Muscarinic acetylcholine receptor M2 (Rattus norvegicus, UniProt P10980)
- Sequence (P10980 whole entry): as the sequence (P10980 whole entry, looked up) above
- Assay explanation: Binding affinity to the rat cardiac muscarinic acetylcholine receptor M2 using 0.3 nM [3H]N-methylscopolamine as radioligand
Experimental readout: log10(IC50) (log10 of the value in nM)

Compound | Experimental readout | Numeric value
CCN(CC)CC1CCCCN1CC(=O)N1c2cc(Cl)ccc2C(=O)Nc2cccnc21 (stereo unspecified) | log10(IC50) | 1.60
CCN(CC)CC1CCN(CC(=O)N2c3ccccc3C(=O)Nc3cccnc32)CC1 | log10(IC50) | 2.90
CCN(CC)CCC1CCCCN1CC(=O)N1c2ccccc2C(=O)Nc2cccnc21 (stereo unspecified) | log10(IC50) | 2.52
CCN(CC)CC1CCCCN1CC(=O)N1c2ccc(C)cc2C(=O)Nc2cccnc21 (stereo unspecified) | log10(IC50) | 1.48
CCN(CC)CC1CCCCN1CC(=O)N1c2ccc(Br)cc2C(=O)Nc2cccnc21 (stereo unspecified) | log10(IC50) | 2.18
CCN(CC)CC1CCCCN1CCC(=O)N1c2ccccc2C(=O)Nc2cccnc21 (stereo unspecified) | log10(IC50) | 2.34

* * *

- Study system: Muscarinic acetylcholine receptor M2 (Rattus norvegicus)
- Assay explanation: Binding affinity to the rat cardiac muscarinic acetylcholine receptor M2 using 0.3 nM [3H]N-methylscopolamine as radioligand
Experimental readout: IC50 (nM)

Compound | Numeric value
CCN(CC)CC1CCCCN1CC(=O)N1c2ccc(Cl)cc2C(=O)Nc2cccnc21 (centres undefined) | 100
CCN(CC)CC1CCCN1CC(=O)N1c2ccccc2C(=O)Nc2cccnc21 (centres undefined) | 150
CCN(CC)CC1CCCCN1CC(=O)N1c2ccccc2C(=O)Nc2cccnc21 (stereo in doubt; 28) [OTENZEPAD] | 400
CCNCC1CCCCN1CC(=O)N1c2ccccc2C(=O)Nc2cccnc21 (centres undefined) | 600
CN(C)CC1CCCCN1CC(=O)N1c2ccccc2C(=O)Nc2cccnc21 (centres undefined) | 140
CCN(CC)CC1CCCCN1C(=O)N1c2ccccc2C(=O)Nc2cccnc21 (centres undefined) | 5000
CCN(CC)CCCC1CCCCN1CC(=O)N1c2ccccc2C(=O)Nc2cccnc21 (centres undefined) | 60
CCN(CC)CC1CCCCN1CC(=O)N1c2ccccc2C(=O)Nc2cccnc21 (stereo in doubt; 29) [OTENZEPAD] | 50
CCN(CC)CC1CCCN(CC(=O)N2c3ccccc3C(=O)Nc3cccnc32)C1 (centres undefined) | 170
